COMPOUND	melting point
Cc1ccccc1Nc1nc(N)nc2c(C)cccc12	118 to 120 °C
Cc1csc2ncc(C(O)CCc3ccc(Br)cc3)n12 (stereo unspecified)	175 to 178 °C
CC1(CN2CCN(C(=O)NCC=Cc3ccc(C(F)(F)F)cc3)CC2)Cn2cc([N+](=O)[O-])nc2O1 (stereo unspecified)	105 to 107 °C
CCCc1ccc(C(=O)C(=O)OCC)[nH]1	48 to 49 °C
O=[N+]([O-])c1cc(OCCCl)ccc1Cl	46 to 48 °C
Nc1c2c(nc3ccccc13)CCCC2N1CCCC1 (stereo unspecified)	201 to 203 °C

* * *

COMPOUND	melting point
Cc1nccn1CCCC1CCc2onc(-c3ccccc3)c2C1=O (stereo unspecified)	97 to 99 °C
OCCOc1ccc(-c2nc(-c3ccc(OCCO)cc3O)nc(-c3ccc(OCCO)cc3O)n2)cc1	169 °C
COc1ccc(N(C(=O)CN2C(=O)C(Cc3cc(C)n[nH]3)C(=O)N(c3ccccc3)c3ccccc32)C(C)C)cc1 (stereo unspecified)	156 to 159 °C
Cc1cccnc1-n1ccnc1S(=O)Cc1ccccc1N (stereo unspecified)	112 to 114 °C
COc1cc2c(c(Cl)c1Cl)SCC2=O	178 to 180 °C
CC(C)(C)OC(=O)[C@@H]1CCCN2C(=O)CC[C@H](NC(=O)OCC3c4ccccc4-c4ccccc43)C(=O)N12	190 to 192 °C
COC(=O)c1nc(-c2ccc(C)c(OC)c2F)cc(N)c1Cl	95 to 96 °C
CCOc1ccc(Nc2n[nH]c3ncnc(Nc4cccc(Cl)c4)c23)cc1	232 to 233 °C
CN1C(=O)Cn2cnnc2-c2cc(Cl)ccc21	272 to 274 °C
CCOc1ccccc1N(C[C@H]1CCC[C@H](CN(C(=O)Nc2ccc(N(C)C)cc2)c2ccccc2OCC)C1)C(=O)Nc1ccc(N(C)C)cc1 (relative stereo)	130 to 135 °C
O=C(O)CCCCc1cc(O)c(O)c(Cl)c1	99 to 101 °C
CCNC(=O)/C=C(C)/C=C/C=C(C)/C=C/c1c(C)cc(OC(F)(F)F)c(C)c1C	198 to 200 °C
O=CN(Cc1ccccc1)Cc1ccccc1	53 to 54.5 °C
CSc1c(F)cc(C(=O)CBr)cc1F	30.5 to 33.2 °C
COCn1c(C(N)=O)c(OC(C)C)c2cc(OC)ccc21	145 to 147 °C
Cc1cc(C(=O)O)ccc1C1=CCC2CC1C2(C)C (stereo unspecified)	139 to 140 °C
CC1=C(C(O)c2ccc3c(c2)CCN(C(N)=O)C3)C(C)(C)CC1 (stereo unspecified)	68.6 to 69.6 °C
COc1cc(C(C)=O)c(OC)cc1C	75 to 77 °C
O=[N+]([O-])c1ccc2c(c1Br)OCO2	87 to 89 °C
CCN1c2ncccc2C(N2CCCC2)=Nc2c(C)cc(C)nc21	138 to 140 °C
COc1cccc(C(C[N+](=O)[O-])C2CCCCC2=O)c1 (racemic)	125 to 126 °C
